Hello, the source for this data is patent US20240209076A1, in case you need it.

Target: human IL-6 (human, UniProt P05231 30-212)
Sequence (P05231 30-212 limits assumed): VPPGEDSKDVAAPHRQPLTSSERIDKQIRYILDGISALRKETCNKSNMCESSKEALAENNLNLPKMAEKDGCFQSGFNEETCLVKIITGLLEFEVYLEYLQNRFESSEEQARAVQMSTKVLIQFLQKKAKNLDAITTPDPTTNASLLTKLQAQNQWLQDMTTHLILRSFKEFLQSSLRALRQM
Test: SPR (Biacore), supernatant antibody on Protein A chip, IL-6 flowed, 37 C
Parameter threshold = 0.0009 s⁻¹. Response is fulfilled when koff meets or exceeds it, else not fulfilled.

Here are 2 binders together with their reported answers.
| binder | class.name |
| --- | --- |
| anti-IL-6 antibody, heavy chain I51E, G66D / light chain M32L, M50D, N52S, M88Q (antibody, human IgG1, V domains shown, Human IgG1) VH: EVQLVESGGGLVQPGGSLRLSCAASGFTFSPFAMSWVRQAPGKGLEWVAKESPGGSWTYYSDTVTDRFTFSLDTSKSTAYLQMNSLRAEDTAVYYCARQLWGYYALDIWGQGTLVTVSS VL: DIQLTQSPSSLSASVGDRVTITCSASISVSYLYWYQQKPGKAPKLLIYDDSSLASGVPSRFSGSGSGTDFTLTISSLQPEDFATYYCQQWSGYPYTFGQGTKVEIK | fulfilled |
| anti-IL-6 antibody, heavy chain S35D, G66D / light chain M32L, M50D, N52S, M88Q (antibody, human IgG1, V domains shown, Human IgG1) VH: EVQLVESGGGLVQPGGSLRLSCAASGFTFSPFAMDWVRQAPGKGLEWVAKISPGGSWTYYSDTVTDRFTFSLDTSKSTAYLQMNSLRAEDTAVYYCARQLWGYYALDIWGQGTLVTVSS VL: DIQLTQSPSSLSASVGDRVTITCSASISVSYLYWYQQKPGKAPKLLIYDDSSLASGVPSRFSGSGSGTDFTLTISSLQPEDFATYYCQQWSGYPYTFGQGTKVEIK | fulfilled |

Is it the case that anti-IL-6 antibody, heavy chain T63I, G66D / light chain M32L, M50D, N52S, M88Q (antibody, human IgG1, V domains shown, Human IgG1) VH: EVQLVESGGGLVQPGGSLRLSCAASGFTFSPFAMSWVRQAPGKGLEWVAKISPGGSWTYYSDIVTDRFTFSLDTSKSTAYLQMNSLRAEDTAVYYCARQLWGYYALDIWGQGTLVTVSS VL: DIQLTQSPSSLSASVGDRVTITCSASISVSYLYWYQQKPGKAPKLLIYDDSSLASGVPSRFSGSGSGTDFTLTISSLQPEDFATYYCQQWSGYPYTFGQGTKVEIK has koff reaching or exceeding 0.0009 s⁻¹?
not fulfilled

Proceed to anti-IL-6 antibody, heavy chain I51S, G66D / light chain M32L, M50D, N52S, M88Q (antibody, human IgG1, V domains shown, Human IgG1) VH: EVQLVESGGGLVQPGGSLRLSCAASGFTFSPFAMSWVRQAPGKGLEWVAKSSPGGSWTYYSDTVTDRFTFSLDTSKSTAYLQMNSLRAEDTAVYYCARQLWGYYALDIWGQGTLVTVSS VL: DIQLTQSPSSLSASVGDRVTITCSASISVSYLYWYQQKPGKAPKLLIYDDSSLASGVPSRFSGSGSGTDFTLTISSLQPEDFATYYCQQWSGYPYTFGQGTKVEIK
not fulfilled
